Target: T1, human calcitonin receptor (human, UniProt P30988 25-474)
T1 construct: whole, on cells; also called hCTR; hCT
T1 sequence (looked up): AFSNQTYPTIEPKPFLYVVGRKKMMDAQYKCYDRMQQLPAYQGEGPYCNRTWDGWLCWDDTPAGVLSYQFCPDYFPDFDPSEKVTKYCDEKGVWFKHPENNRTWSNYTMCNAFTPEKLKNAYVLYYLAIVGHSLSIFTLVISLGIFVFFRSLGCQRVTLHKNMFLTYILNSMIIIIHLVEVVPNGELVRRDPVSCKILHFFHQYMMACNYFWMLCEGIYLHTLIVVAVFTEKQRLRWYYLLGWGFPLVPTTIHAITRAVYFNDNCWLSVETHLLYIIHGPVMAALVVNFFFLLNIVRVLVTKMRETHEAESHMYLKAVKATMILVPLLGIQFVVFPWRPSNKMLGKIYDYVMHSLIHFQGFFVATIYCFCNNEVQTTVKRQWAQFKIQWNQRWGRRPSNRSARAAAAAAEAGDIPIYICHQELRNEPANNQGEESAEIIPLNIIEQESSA
Assay: ratio of IC50 at hCTR to IC50 at the human amylin receptor (reference)

Binder | Ratio hCT/hAmylin binding
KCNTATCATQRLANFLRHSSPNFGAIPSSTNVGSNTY (C20 diacid-gGlu-2xOEG on the alpha amino group of the N-terminal residue; disulfide bridge Cys2-Cys7; C-terminal amide, also called compound 24) | 90
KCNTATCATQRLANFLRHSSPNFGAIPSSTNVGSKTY (C20 diacid-gGlu on the alpha amino group of the N-terminal residue; disulfide bridge Cys2-Cys7; C-terminal amide, also called compound 34) [N^α1-[(4S)-4-carboxy-4-(19-carboxynonadecanoylamino)butanoyl]-[Arg17,Pro21,Pro27,Lys35]-h-amylin] | 64.4
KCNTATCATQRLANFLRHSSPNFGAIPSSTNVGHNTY (C20 diacid-gGlu on the alpha amino group of the N-terminal residue; disulfide bridge Cys2-Cys7; C-terminal amide, also called compound 40) [N^α1-[(4S)-4-carboxy-4-(19-carboxynonadecanoylamino)butanoyl]-[Arg17,Pro21,Pro27,His34]-h-amylin] | 31.1
